molecular target: HLA-A*02:03; assay: IEDB peptide-MHC binding, purified MHC/direct/fluorescence; filed as Kd, often an IC50 or EC50 that approximates it; bounds were set here for any values at or beyond the usual limits of such assays; details: source organism: Reston ebolavirus
experimental endpoint: Kd

Prompt: Endpoint output: Kd of "ITDEINQIK" . Value?
Response: ≥ 20 µM

---

target: HLA-A*02:06; experiment: IEDB peptide-MHC binding, purified MHC/competitive/radioactivity; filed as Kd, often an IC50 or EC50 that approximates it; bounds were set here for any values at or beyond the usual limits of such assays; details: source organism: Hepacivirus hominis
experimental endpoint: Kd (µM)
State just the number; it will be interpreted in µM.

Prompt: Endpoint output: Kd of "HSKRKCDEL" . Value?
Response: 1.15

All values here come from the Immune Epitope Database (IEDB).
